procedureText: Inhibition of YAP (unknown origin) to TEAD4 (unknown origin) protein protein interaction
Set-up: species or system Homo sapiens
measuredEndpoint: pIC50
Lab note: report pIC50 as minus log10 of the concentration in molar units, number only.

Q: # lookup: pIC50 of CCOc1ccc(CN2CCCC(C(=O)c3cccc(C(F)(F)F)c3)C2)cc1CO (stereo unspecified)
Result: 4.67

* * *

Test system: PANC-1
procedureText: Antiproliferative activity against human PANC-1 cells incubated for 48 hrs by MTT assay
Assay type: functional, cell-based
assaySetup: PANC-1, 48 h
pIC50: −log10 of the molar value.
measuredEndpoint: pIC50

Q: # get_value(readout= pIC50, system= PANC-1) for COc1ccc(C(=O)O[C@H]2C=COC=C3[C@@H](O)[C@]45S[C@@H](C(=O)N4[C@@H]32)N(C)C5=O)cc1Oc1cc(C=O)ccc1O
Result: > 5.70

* * *

procedureText: Antiproliferative activity against human SKGT4 cells incubated for 72 hrs by MTS assay
Assay type: functional, cell-based
assaySetup: SKGT4, 72 h
pIC50: −log10 of the molar value.
measuredEndpoint: pIC50

Q: Requested read-out: pIC50. Entry: O=S(=O)(c1ccc2c(c1)C(=NO)c1cc(S(=O)(=O)N3CCCCC3)ccc1-2)N1CCCCC1
Result: > 6.00

* * *

procedureText: Inhibition of TEAD (unknown origin) by YAP reporter assay
Set-up: species or system Homo sapiens
Listed next: entries and their corresponding pIC50.
# reply with the number alone; pIC50 is -log10 of concentration in mol/L

In [3]: df
Out[3]:
                                   molecule   val
0      COC(=O)c1cc(S(N)(=O)=O)ccc1NC1CCCCC1  6.34
1  CC(NC(=O)c1cc2nc(N(C)C)n(-c3ccc(Br)cc3)c2s1)c1ccccn1 (centres undefined)  6.41
2  C[C@H](NC(=O)c1ccc2c(-c3ccc(C(F)(F)F)cc3)cccc2c1)c1ccccn1  7.98

Next molecule, please.
Q: Give its pIC50 value. Item: CNS(=O)(=O)c1ccc(Nc2ccc(C(F)(F)F)cc2)c(-c2cn(C)cn2)c1
Result: 8.99

* * *

procedureText: Antiproliferative activity against human JHESO cells incubated for 72 hrs by MTS assay
Type: functional, cell-based
measuredEndpoint: IC50

Q: Can you look up the measured IC50 of O=S(=O)(c1ccc2c(c1)C(=NO)c1cc(S(=O)(=O)N3CCCCC3)ccc1-2)N1CCCCC1 for me?
Result: < 1000 nM

* * *

Test system: NCI-H1975
procedureText: Antiproliferative activity against human NCI-H1975 cells incubated for 48 hrs by SRB assay
Assay type: functional, cell-based
assaySetup: NCI-H1975, 48 h
measuredEndpoint: pIC50
Here pIC50 is given on a logarithmic scale as minus log10 of the concentration in mol/L.

Q: Quick one: pIC50 of C[C@H]1[C@H](OC(=O)CCC(=O)O)O[C@@H]2O[C@@]3(C)CC[C@H]4[C@H](C)CC[C@@H]1[C@@]24OO3 [ARTESUNATE] ?
Result: 5.40

* * *

procedureText: Inhibition of TEAD4 (unknown origin) to YAP (unknown origin) expressed in HEK293 cells incubated for 16 hrs by dual luciferase reporter assay
Format: cell-based
assaySetup: Homo sapiens, HEK293, 16 h
measuredEndpoint: IC50 (µM)
// note: answer is a bare numeric in µM

Q: Which IC50 reading was recorded for the compound C=Cc1c(C)/c2[nH]/c1=C\C1=NC(=C\C3=NC(=C\C4=NC(=C5C=CC(C(=O)OC)=C(C(=O)OC)[C@@]45C)\C=2)/C(C)=C3CCC(=O)OC)/C(CCC(=O)O)=C1C ?
Result: 8.6
